- Tested system: Adenosine A2 receptor (Rattus norvegicus, UniProt P29276+P30543)
- Experiment description: Binding affinity against Adenosine A2 receptor in rat striatal membranes using [3H]5'-(N-ethylcarboxamido)-adenosine (NECA) as the ligand
- Type: cell membranes, Striatum, Membrane
Parameter measured: Ki (µM)

(a) C#CCn1cnc2[nH]c(=O)n(C)c(=O)c21
(b) CCn1c(=O)[nH]c2[nH]c(C3CCCCC3)nc2c1=O
(c) C#CCn1c(=O)[nH]c2[nH]cnc2c1=O
Q) Using measured Ki, arrange the molecules from above in descending sequence. The labels, placed in the requested order, form the answer.
A) c, a, b
(c: 26 µM, a: 14 µM, b: 2.3 µM)

(P) C=CCn1cnc2c1c(=O)[nH]c(=O)n2CC=C
(Q) O=c1[nH]c(=O)c2[nH]c(-c3ccccc3)nc2[nH]1
Q) Could you tell me which of these two has the smaller Ki figure? First: P Second: Q Provide the label of your selected option as the answer.
A) Q
